# studyTarget: human orexin-2 receptor (Homo sapiens (Human), UniProt O43614)
# Sequence (O43614 whole entry): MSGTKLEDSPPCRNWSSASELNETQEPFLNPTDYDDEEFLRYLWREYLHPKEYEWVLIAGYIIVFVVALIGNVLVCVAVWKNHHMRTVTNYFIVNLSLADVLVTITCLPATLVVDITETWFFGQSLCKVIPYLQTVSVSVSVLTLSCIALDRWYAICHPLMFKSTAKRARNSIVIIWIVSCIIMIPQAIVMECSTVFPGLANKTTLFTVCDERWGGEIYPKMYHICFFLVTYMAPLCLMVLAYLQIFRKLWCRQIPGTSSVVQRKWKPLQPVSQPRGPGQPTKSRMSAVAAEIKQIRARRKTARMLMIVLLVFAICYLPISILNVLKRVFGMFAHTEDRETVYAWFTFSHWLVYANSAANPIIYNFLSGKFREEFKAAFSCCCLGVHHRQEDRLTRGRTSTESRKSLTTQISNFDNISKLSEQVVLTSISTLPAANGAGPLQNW
# assayNotes: In vitro assay: intracellular calcium measurements (FLIPR), antagonistic activity
# conditions: CHO cells expressing human orexin-2 receptor, orexin-A agonist, geometric mean, read-out: IC50 Ox2
pIC50: −log10 of the molar value.
assayReadout: pIC50

Answered examples (3):
INSERT INTO measurements (compound, assayreadout, val) VALUES
  ('Cc1ccc(-c2ccccc2F)c(C(=O)N2CCC[C@@]2(C)c2nc3cc(C)c(C)cc3n2C)c1 [Ex. 7.43]', 'pIC50', 7.38),
  ('Cc1c(Cl)ccc2[nH]c([C@]3(C)CCCN3C(=O)c3c(F)cccc3-n3nccn3)nc12 [Ex. 5.48]', 'pIC50', 7.60),
  ('CSc1cccc2nc([C@@H]3CCCN3C(=O)c3cnc(C)nc3-c3ccc(Br)c(Cl)c3)[nH]c12 [Ex. 1.90]', 'pIC50', 7.85);

a. Cc1nc(C(=O)N2CCCC2c2nc3cc(Cl)c(C)cc3[nH]2)c(-c2cccc(Cl)c2)s1 (stereo not shown) [Ex. 1.101]
b. CSc1ccc2nc([C@@H]3CCCN3C(=O)c3ccccc3-c3ccc(C)c(C)c3)[nH]c2c1 [Ex. 1.46]
c. C=C1CC(c2nc3cc(C(C)(C)C)ccc3[nH]2)N(C(=O)c2cc(C)sc2-c2ccc(C)c(C)c2)C1 (stereo not shown) [Ex. 6.81]
Q: Let's sort these by pIC50, smallest first. Go ahead? Record the ranking as a list of labels in the requested order.
A: a, c, b

* * *

# studyTarget: human orexin-1 receptor (Homo sapiens (Human))
# assayNotes: In vitro assay: intracellular calcium measurements (FLIPR), antagonistic activity
# conditions: CHO cells expressing human orexin-1 receptor, orexin-A agonist, geometric mean, read-out: IC50 Ox1
assayReadout: IC50 (nM)

Please review the following examples before continuing.
INSERT INTO measurements (compound, studytarget, val) VALUES
  ('C=C1C[C@@H](c2nc3cc(OC)ccc3[nH]2)N(C(=O)c2nc(C)sc2-c2ccc(Cl)cc2)C1', 'human orexin-1 receptor (Homo sapiens (Human))', 216),
  ('Cc1cc2nc([C@]3(C)CCCN3C(=O)c3ccccc3-c3ccccc3F)[nH]c2cc1C', 'human orexin-1 receptor (Homo sapiens (Human))', 46),
  ('Cc1nc(C(=O)N2CCCC2c2nc3c(C)c(Cl)ccc3[nH]2)c(-c2cccc(Cl)c2)s1 (centres unmarked)', 'human orexin-1 receptor (Homo sapiens (Human))', 5);

a. C=C1C[C@@H](c2nc3cc(C(C)(C)C)ccc3[nH]2)N(C(=O)c2nc(C)ccc2-n2nccn2)C1
b. C=C1CN(C(=O)c2nc(C)sc2-c2cccc(Cl)c2)C(C)(c2nc3cc(OC)ccc3[nH]2)C1 (centres unmarked)
Q: Response body: label of entry with the larger IC50; valid values a , b . Pick one and reply with its label.
A: a
(a: 233 nM, b: 8 nM)

* * *

# studyTarget: human orexin-1 receptor (Homo sapiens (Human), UniProt O43613)
# Sequence (O43613 whole entry): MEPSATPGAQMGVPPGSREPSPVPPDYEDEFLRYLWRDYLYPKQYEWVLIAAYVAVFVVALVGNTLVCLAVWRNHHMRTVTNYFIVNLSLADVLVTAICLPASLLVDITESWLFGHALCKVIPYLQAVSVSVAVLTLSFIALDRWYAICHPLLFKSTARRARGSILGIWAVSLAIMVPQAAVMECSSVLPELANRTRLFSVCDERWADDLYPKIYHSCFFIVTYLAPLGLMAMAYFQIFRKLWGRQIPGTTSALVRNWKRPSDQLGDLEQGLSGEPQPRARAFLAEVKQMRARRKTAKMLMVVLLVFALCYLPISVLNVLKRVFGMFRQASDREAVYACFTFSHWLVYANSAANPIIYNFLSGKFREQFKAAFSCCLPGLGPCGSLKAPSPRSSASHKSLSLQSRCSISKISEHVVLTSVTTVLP
# assayNotes: In vitro assay: intracellular calcium measurements (FLIPR), antagonistic activity
# conditions: CHO cells expressing human orexin-1 receptor, orexin-A agonist, geometric mean, read-out: IC50 Ox1
pIC50: −log10 of the molar value.
assayReadout: pIC50

INSERT INTO measurements (compound, val) VALUES
  ('C=C1CC(c2nc3cc(OC)ccc3[nH]2)N(C(=O)c2cc(C)sc2-c2ccc(C)c(C)c2)C1 (racemic)', 7.62),
  ('Cc1nc(C(=O)N2CC[C@H](C)[C@H]2c2nc3c(C(F)(F)F)cccc3[nH]2)c(-c2ccc(Cl)cc2)s1', 8.22),
  ('C[C@@]1(c2nc3cc(F)c(Br)cc3[nH]2)CCCN1C(=O)c1cc(Cl)ccc1-n1nccn1', 7.70),
  ('CSc1ccc2nc([C@@H]3CCCN3C(=O)c3ccc(C)cc3-n3nccn3)[nH]c2c1', 7.40),
  ('COc1cccc(-c2ccc(C)cc2C(=O)N2CCC[C@@]2(C)c2nc3cc(C)c(C)cc3n2CCF)c1', 7.72),
  ('C=C1CN(C(=O)c2nc(C)sc2-c2ccc(C)cc2)C(C)(c2nc3cc(OC)ccc3[nH]2)C1 (stereo not drawn)', 7.72),
  ('Cc1ccc(-c2cccc(F)c2)c(C(=O)N2CCC[C@@]2(C)c2nc3cc(C)c(C)cc3n2CC2CC2)c1', 7.80),
  ('C=C1C[C@@H](c2nc3ccc(Cl)c(C)c3[nH]2)N(C(=O)c2nc(C)sc2-c2ccc(Cl)cc2)C1', 7.85);

1. Cc1ccc(-n2cccn2)c(C(=O)N2CCC[C@@]2(C)c2nc3cc(F)c(Br)cc3[nH]2)c1
2. C=C1C[C@@H](c2nc3c(Br)cccc3[nH]2)N(C(=O)c2cc(C)ccc2-n2nccn2)C1
3. Cc1ccc(-n2nccn2)c(C(=O)N2CC[C@H](C)[C@H]2c2nc3c(C)cc(C)cc3[nH]2)c1
4. Cc1nc(C(=O)N2CC[C@H](C)[C@H]2c2nc3c(Cl)cccc3[nH]2)c(-c2ccc(F)c(F)c2)s1
5. C[C@@]1(c2nc3cc(C(F)(F)F)ccc3[nH]2)CCCN1C(=O)c1ccccc1-n1cccn1
Q: Output the entries ranked by pIC50 from maximum down to minimum. Enter labels, ranked according to the request.
A: 3, 1, 4, 2, 5
(3: 8.05, 1: 7.70, 4: 7.37, 2: 6.85, 5: 6.41)

a. Cc1c(Cl)ccc2nc([C@]3(C)CCCN3C(=O)c3cc(F)ccc3-c3cccnc3)[nH]c12
b. C=C1CC(c2nc3cc(Cl)c(C)cc3[nH]2)N(C(=O)c2cc(C)sc2-c2ccc(C)c(C)c2)C1 (racemic)
Q: Between the entries labeled a and b , whose measured pIC50 is lower? # answer = label of selected item
A: a
